System: CEM cells
Assay: cells
Details: Homo sapiens, CCRF-CEM, read-out: IC50 in CEM cells *MTT Assay
pIC50: −log10 of the molar value.
ASSAY ENDPOINT: pIC50

1. N#CC[C@H](C1CCCC1)n1cc(-c2ncnc3[nH]ccc23)cn1; 4.93

----------
Listing: FI90 (ratio of EC90 against mutant virus:EC90 against wild-type xxLAI) of selected compounds
System: HIV-1 containing A62V/V75I/F77L/F116Y/Q151M
Experiment: microbe, parasite or virus in culture
Assay type: cell-based
Conditions: A62V/V75I/F77L/F116Y/Q151M
Counter-ions that a name gives are not always drawn.
ASSAY ENDPOINT: FI90 (ratio of EC90 against mutant virus:EC90 against wild-type xxLAI)

1. O=C1Nc2ccc(Cl)cc2[C@@](C#CC2CC2)(C(F)(F)F)O1 [EFV, efavirenz]; 2
2. N#CC[C@H](C1CCCC1)n1cc(-c2ncnc3[nH]ccc23)cn1 [Jakafi, Ruxolitinib]; 0.3
3. Nc1nc(=O)n([C@@H]2CS[C@H](CO)O2)cc1F (relative stereo) [(−)FTC]; 2.5
4. CC(C)OC(=O)OCOP(=O)(CO[C@H](C)Cn1cnc2c(N)ncnc21)OCOC(=O)OC(C)C [TDF, Tenofovir disoproxil fumarate]; 3.9
